valueType: melting point

Task: # melting point lookup, item CC(C)(CCc1cc2cc(Cl)ccc2n1S(=O)(=O)c1ccccc1)C(=O)O
Output: 242 °C

Task: # input compound: Nc1cnc(N2CCN(CCCC(=O)c3ccc(F)cc3)CC2)cc1N ; wanted: its melting point
Output: 166 to 169 °C

Task: Which melting point value belongs to Cc1ccc(C)n1-c1ccc(CC#N)cc1 ?
Output: 112 to 113 °C

Task: // melting point lookup, key: CCOC(=O)CC(NC(=O)c1ccc(F)cc1)C(=O)c1ccco1 (stereo not given)
Output: 95.5 to 97 °C

Task: Which melting point reading was recorded for the compound C=CC(=O)N1CCSc2ccccc2C1 ?
Output: 108 to 110 °C

Task: Fill in the blank: the reported melting point of O=C(Cn1ccnc1)c1ccc(-c2ccncc2)cc1 is ____.
Output: 144 to 146 °C

Task: Look up melting point: Cn1nc(-c2cc(C(=O)O)c(Cl)cc2F)c(Cl)c1OC(F)F
Output: 137 to 140 °C

Task: Reported melting point for CN(C)C(=O)Sc1ccc(C(F)(F)F)cc1C(=O)c1ccc(C#N)cc1 : what is it?
Output: 159 °C

Task: Please give the measured melting point for this compound: CCCCCCCCCCCCCCCCCCOC(=O)CCC1CCCCC1(c1ccc(O)c(C(C)(C)C)c1)c1ccc(O)c(C(C)(C)C)c1 (stereo not given)
Output: 155 °C

Task: // query melting point value for entry CCC1Cc2c(nc3ccc(F)cc3c2C(=O)O)-c2ccc(-c3ccccc3F)cc21 (stereo not given)
Output: 236 to 237 °C
